Target: T1, hHER3 full length (human, UniProt P21860 20-1342)
T1 construct: On transfected CHO, CHO HER2/HER3, CHO EGFR/HER3 or CHO Flp-In cells; endogenous HER3 of MCF-7 and MDA-MB468 cells in the signalling assays; also called human HER3
Experiment: FACS, 400 nM, competitor 18E08-biotin
RESULT TYPE: % competition (%)
Could you give me the number in %? Just the number is fine.

Please supply the value of reported % competition for the item 21B02 (VHH) VHH: EVQLVESGGGLVQPGGSLRLSCAASGFTFDYYTIGWFRQAPGKEREGVSCISSRDGDSYYADSVKGRFTISRDNAKNTAYLQMNSLKPEDTAVYYCAASASDYGLGLELFHDEYNYWGQGTQVTVSS
20

Determine from records and report % competition for 34A04 (VHH) VHH: EVQLVESGGGLVQAGGSLRLSCAASGFTFDDYTIGWFRQAPGKEREEISCISNNDGSTYYTNSVKGRFTISSDNAKNTVYLQMNSLKPEDTAVYYCAASPHGCWYDLIPLQADFGSWGQGTQVTVSS
25

Look up and state reported % competition for 18G11 (VHH, c-myc, His6-tagged form as expressed; also called HER3MS18G11; HER3MS018G11) VHH: EVQLVESGGGLVQPGGSLRLSCAASGTLFKINAMGWYRQAPGKRRELVALITSSDTTDYAESVEGRFTISRDNTWNAVYLQMNSLKPEDTAVYYCHSDHYSMGVPEKRVIMYGQGTQVTVSS
97
